Below, each entry is listed alongside its reported inhibition.
Biological target: N-glycosylase/DNA lyase (Homo sapiens) (UniProt O15527);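 also: OGG1 cleavage of a quenched duplex DNA oligonucleotide, coupled to APE1 for strand incision, read as fluorescence at 594 nm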
Sequence (O15527 whole entry): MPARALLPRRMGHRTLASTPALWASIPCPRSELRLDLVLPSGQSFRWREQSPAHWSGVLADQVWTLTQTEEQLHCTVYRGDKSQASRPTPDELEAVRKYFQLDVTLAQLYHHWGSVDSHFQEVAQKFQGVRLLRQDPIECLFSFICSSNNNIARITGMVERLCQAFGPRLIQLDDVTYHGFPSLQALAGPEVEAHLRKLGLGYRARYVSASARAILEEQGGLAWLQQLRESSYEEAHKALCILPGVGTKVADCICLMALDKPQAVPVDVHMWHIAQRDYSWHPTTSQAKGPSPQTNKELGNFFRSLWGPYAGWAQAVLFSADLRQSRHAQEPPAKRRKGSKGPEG
Conditions: Compound Concentration 10.0 uM, Hit No
Description: Inhibition of OGG1 by quantifying inhibition of OGG1-mediated cleavage and dissociation of quenched duplex DNA oligonucleotides, measured as fluorescence at 594 nm. To generate a functional strand incision and increase turn-over this assay is coupled to APE1.
Endpoint Label: inhibition (%)

Molecule	Tested System	Unit Descriptor	Value Measured
COc1cccc(CNC(=O)c2nc3scc(CN(C)Cc4ccccc4)c3c(=O)[nH]2)c1	N-glycosylase/DNA lyase (Homo sapiens) (UniProt O15527)	%	4.36
O=C1NCN(c2ccccc2)C12CCN(CCCOc1ccc(F)cc1)CC2	N-glycosylase/DNA lyase (Homo sapiens) (UniProt O15527)	%	-4.77
C[C@H]1[C@H]2CC[C@H]3[C@@H]4CC=C5C[C@@H](N(C)C)CC[C@]5(C)[C@H]4CC[C@]23CN1C	N-glycosylase/DNA lyase (Homo sapiens) (UniProt O15527)	%	-2.15
CCCCCCCCCCCCC/C=C/[C@@H](O)[C@@H](N)COP(=O)(O)O	N-glycosylase/DNA lyase (Homo sapiens) (UniProt O15527)	%	2.2
COc1ccc(S(=O)(=O)N2c3ccc(Cl)cc3[C@](O)(c3ccccc3Cl)[C@@H]2C(=O)N2CCC[C@H]2C(N)=O)cc1OC	N-glycosylase/DNA lyase (Homo sapiens) (UniProt O15527)	%	-5.95
CC(C)c1ccc(CC(=O)N2CCC[C@@H](c3cccc(OC(C)(C)C(=O)O)c3)C2)cc1	N-glycosylase/DNA lyase (Homo sapiens) (UniProt O15527)	%	-4.05
N#Cc1c(N)nc(SCC(N)=O)c(C#N)c1-c1ccc(OCC2CC2)cc1	N-glycosylase/DNA lyase (Homo sapiens) (UniProt O15527)	%	6.64
N#CN1CC[C@H](C(=O)Nc2nc3c(s2)CN(C(=O)CN=[N+]=[N-])CC3)C1	N-glycosylase/DNA lyase (Homo sapiens) (UniProt O15527)	%	-6.61
CCN1CCC[C@H]1CNC(=O)c1c(OC)ccc(Br)c1OC	N-glycosylase/DNA lyase (Homo sapiens) (UniProt O15527)	%	-3.96
CCOCCn1cc(C(=O)Nc2ccc(-n3nc(-c4cccnc4)cc3C(F)(F)F)cn2)ccc1=O	N-glycosylase/DNA lyase (Homo sapiens) (UniProt O15527)	%	3.33
Cc1c(C(=O)NC2CCCCC2)sc2nc3ccc(N)cc3n12	N-glycosylase/DNA lyase (Homo sapiens) (UniProt O15527)	%	-4.66
O=C(NCC12CC3CC(CC(C3)C1)C2)c1ccccc1Cl	N-glycosylase/DNA lyase (Homo sapiens) (UniProt O15527)	%	-1.14
O=C(Nc1ccc(S(=O)(=O)Nc2nccs2)cc1)C(c1ccccc1)c1ccccc1	N-glycosylase/DNA lyase (Homo sapiens) (UniProt O15527)	%	-6.39
CSc1ccc(C(=O)/C=C/c2cc(C)c(OC(C)(C)C(=O)O)c(C)c2)cc1	N-glycosylase/DNA lyase (Homo sapiens) (UniProt O15527)	%	18.2
CCNC(=O)NS(=O)(=O)c1sc(CC(C)C)cc1-c1ccc(Cn2c(-c3ccccc3)nc(OC)c2C=O)cc1	N-glycosylase/DNA lyase (Homo sapiens) (UniProt O15527)	%	21.2
CCOC(=O)c1ncn2c1CN(C)C(=O)c1cc(F)ccc1-2	N-glycosylase/DNA lyase (Homo sapiens) (UniProt O15527)	%	0.398
c1cc(CN2CCCNCCNCCCNCC2)ccc1CN1CCCNCCNCCCNCC1	N-glycosylase/DNA lyase (Homo sapiens) (UniProt O15527)	%	-2.11
O=C(Nc1ccccc1Br)N[C@@H]1CCN(c2ccc(C(F)(F)F)cn2)C1	N-glycosylase/DNA lyase (Homo sapiens) (UniProt O15527)	%	3.57
CCC(=O)N[C@@H]1CC[C@H](C(=O)N(C)c2ccc(-c3nc4ccccc4o3)cc2)C1	N-glycosylase/DNA lyase (Homo sapiens) (UniProt O15527)	%	-5.03
COc1ccc2c(c1)O[C@@H](c1ccc(OC)c(OC)c1)C[C@H]2NC(=O)C1(c2ccc3c(c2)OC(F)(F)O3)CC1	N-glycosylase/DNA lyase (Homo sapiens) (UniProt O15527)	%	-6.31
CCCCCCCC/C=C\CCCCCCCC(N)=O	N-glycosylase/DNA lyase (Homo sapiens) (UniProt O15527)	%	4.44
COc1cc(O)c(C(CC(=O)N2C[C@H](C)C[C@H](C)C2)c2ccc3c(c2)OCO3)c(OC)c1 (some centres undefined)	N-glycosylase/DNA lyase (Homo sapiens) (UniProt O15527)	%	10.8
CNC(=O)c1cc(C(=O)N[C@H]2[C@@H]3COC[C@@H]32)cc2c1O[C@@H](CF)[C@@H]2c1ccccc1	N-glycosylase/DNA lyase (Homo sapiens) (UniProt O15527)	%	6.72
O=S1(=O)c2cccc3cccc(c23)N1CCCN1CCN(c2ccc(F)cc2)CC1	N-glycosylase/DNA lyase (Homo sapiens) (UniProt O15527)	%	7.99
N=C(N)NCCC[C@@H](NC(=O)C(c1ccccc1)c1ccccc1)C(=O)NCc1ccc(CNC(N)=O)cc1	N-glycosylase/DNA lyase (Homo sapiens) (UniProt O15527)	%	-4.9
Cc1cn([C@@H](C)CC#N)c(=O)c2cc(Cn3nc(C(F)F)cc3Cl)nn12	N-glycosylase/DNA lyase (Homo sapiens) (UniProt O15527)	%	9.38
C[C@@H](CN1CCC(Cc2ccccc2)CC1)[C@@H](O)c1ccc(O)cc1	N-glycosylase/DNA lyase (Homo sapiens) (UniProt O15527)	%	-8.67
Cc1nc(C2CCN(C(=O)c3ccc(OC(F)(F)F)cc3N)CC2)c2ncc(N3CCN(C)CC3)cc2n1	N-glycosylase/DNA lyase (Homo sapiens) (UniProt O15527)	%	7.7
Nc1ncnc2c1ncn2[C@@H]1O[C@H](CO)[C@@H](O)[C@H]1O	N-glycosylase/DNA lyase (Homo sapiens) (UniProt O15527)	%	-6.13
CN(c1ncccc1CNc1ccnc(-c2nc3c(F)c(Cl)ccc3[nH]2)n1)S(C)(=O)=O	N-glycosylase/DNA lyase (Homo sapiens) (UniProt O15527)	%	-6.69
COc1cc(-c2cncc(-c3ccc(N4CCN(C(C)C)CC4)cc3)c2C)cc(F)c1C(=O)N1CCCC1	N-glycosylase/DNA lyase (Homo sapiens) (UniProt O15527)	%	12.1
O=C(NCCNCC(O)COc1ccc(O)cc1)N1CCOCC1 (centres undefined)	N-glycosylase/DNA lyase (Homo sapiens) (UniProt O15527)	%	-7.78
CCCCc1nc2ccc(NC(=O)NC3CCCCC3)cc2n1Cc1ccc(-c2ccccc2C(=O)O)cc1	N-glycosylase/DNA lyase (Homo sapiens) (UniProt O15527)	%	-1.26
COCCCN1CCC(NC(=O)c2cc(Cl)c(N)c3c2OCC3)CC1	N-glycosylase/DNA lyase (Homo sapiens) (UniProt O15527)	%	-3.13
CC(=O)C1=C(C)N(c2cccc(C(F)(F)F)c2)C(=O)N[C@H]1c1ccc(C#N)nc1	N-glycosylase/DNA lyase (Homo sapiens) (UniProt O15527)	%	-1.74
Cc1ccc2[nH]c(CNCCCc3ccncc3)cc(=O)c2c1	N-glycosylase/DNA lyase (Homo sapiens) (UniProt O15527)	%	5.93
CC(C)(C)c1ccc2c(c1)CC[C@H]2NC(=O)Nc1cccc2[nH]ncc12	N-glycosylase/DNA lyase (Homo sapiens) (UniProt O15527)	%	-2.36
CCCCC[C@H](O)/C=C/[C@H]1CCC(=O)[C@@H]1CCCCCCC(=O)O	N-glycosylase/DNA lyase (Homo sapiens) (UniProt O15527)	%	3.78
O=C(NCCS(=O)(=O)c1ccc(C(F)(F)F)cn1)c1ccc(Cl)cc1	N-glycosylase/DNA lyase (Homo sapiens) (UniProt O15527)	%	-0.41

====

Molecular target: Endonuclease 8-like 2 (Homo sapiens) (UniProt Q969S2);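 also: fluorescence at 594 nm reports NEIL2 cutting and release of a quenched double-stranded DNA oligo substrate, reduced signal read as inhibition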
Sequence (whole entry): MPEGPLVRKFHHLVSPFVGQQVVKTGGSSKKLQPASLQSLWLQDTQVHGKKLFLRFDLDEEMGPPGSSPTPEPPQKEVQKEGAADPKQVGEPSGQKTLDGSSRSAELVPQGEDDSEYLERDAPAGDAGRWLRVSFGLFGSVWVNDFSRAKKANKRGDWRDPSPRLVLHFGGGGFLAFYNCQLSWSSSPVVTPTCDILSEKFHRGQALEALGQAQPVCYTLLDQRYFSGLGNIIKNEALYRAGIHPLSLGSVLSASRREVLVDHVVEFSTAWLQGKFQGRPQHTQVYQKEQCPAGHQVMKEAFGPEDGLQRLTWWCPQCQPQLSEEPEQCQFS
Settings: Compound Concentration 10.0 uM, Hit No
Description: Inhibition of NEIL2 by quantifying inhibition of NEIL2-mediated cleavage and dissociation of quenched duplex DNA oligonucleotides, measured as fluorescence at 594 nm.
Below, each entry is listed alongside its reported inhibition.

Compound	inhibition / %
CC(C)Oc1ccc(Cc2ccc(NC3=NCCN3)cc2)cc1	-6.46
C[C@H](NC(=O)Nc1cc2[nH]ncc2c(CO)n1)c1ccccn1	-4.78
N#Cc1cccc(-c2nc(-c3cccnc3)no2)c1	-2.39
Cn1cc(C(=O)OCC2CCN(CCNS(C)(=O)=O)CC2)c2ccccc21	2.51
NC(=O)NN=Cc1ccc(Oc2ccc(F)cc2)cc1	-3.41
Cc1nc(C(=O)N2CCC[C@H]2Cc2nnc(-c3ccccc3)o2)c(-c2ccccc2F)s1	-1.23
O=c1c(Br)ccc2n1C[C@@H]1CNC[C@H]2C1	-6.72
Cc1nc2sccn2c(=O)c1CCN1CCC(=C(c2ccc(F)cc2)c2ccc(F)cc2)CC1	7.75
Oc1cc2c(cc1O)CN(C(=S)NCCc1ccc(Cl)cc1)CCC2	6.53
Cc1ccc2c(c1)c1c(n2CCc2ccc(C)nc2)CCN(C)C1	3.01
O=C(N[C@H]1CCCCC/C=C\C2C[C@@]2(C(=O)O)NC(=O)[C@@H]2C[C@@H](Oc3ccncc3)CN2C1=O)OC1CCCC1 (stereo partly specified)	-0.999
